The measured values listed here are drawn from paper PMC6269873.

# Tested on: ERK pathway
# Test Details: cells
# Type: cell-based, Human
# Assay Conditions: Homo sapiens, HEK293
# T = IC50 below 20 µM (exclusive); F = IC50 at/above 20 µM

[[record]]
compound = "Cc1c(Cc2ccccc2)c(=O)oc2cc(OC(=O)N(C)C)ccc12 [Compound 13]"
group = "T"

[[record]]
compound = "CCc1c(Cc2ccccc2)c(=O)oc2cc(OC(C)=O)ccc12 [Compound 29]"
group = "F"

[[record]]
compound = "CC(=O)Oc1ccc2c(C)c(Cc3ccccc3)c(=O)oc2c1 [Compound 28]"
group = "F"

[[record]]
compound = "CCCC(=O)Oc1ccc2c(CC)c(Cc3ccccc3)c(=O)oc2c1 [Compound 43]"
group = "F"

[[record]]
compound = "CCc1c(Cc2ccc(F)cc2)c(=O)oc2cc(OC(=O)N(C)C)ccc12 [Compound 18]"
group = "F"

[[record]]
compound = "CC(=O)Oc1ccc2c(C)c(Cc3ccc(F)cc3)c(=O)oc2c1 [Compound 31]"
group = "T"

[[record]]
compound = "Cc1c(Cc2ccccc2)c(=O)oc2cc(OC(=O)N(C)C)c(Cl)cc12 [Compound 14]"
group = "F"

[[record]]
compound = "CCCC(=O)Oc1ccc2c(C)c(Cc3ccccc3)c(=O)oc2c1 [Compound 42]"
group = "F"

[[record]]
compound = "CCCc1c(Cc2ccc(F)cc2)c(=O)oc2cc(OC(=O)CC)ccc12 [Compound 40]"
group = "F"

[[record]]
compound = "CCCc1c(Cc2ccc(F)cc2)c(=O)oc2cc(OC(C)=O)ccc12 [Compound 33]"
group = "T"


---

# Target Of Assay: phosphorylated MEK1 (Homo sapiens)
# Sequence (Q02750 whole entry): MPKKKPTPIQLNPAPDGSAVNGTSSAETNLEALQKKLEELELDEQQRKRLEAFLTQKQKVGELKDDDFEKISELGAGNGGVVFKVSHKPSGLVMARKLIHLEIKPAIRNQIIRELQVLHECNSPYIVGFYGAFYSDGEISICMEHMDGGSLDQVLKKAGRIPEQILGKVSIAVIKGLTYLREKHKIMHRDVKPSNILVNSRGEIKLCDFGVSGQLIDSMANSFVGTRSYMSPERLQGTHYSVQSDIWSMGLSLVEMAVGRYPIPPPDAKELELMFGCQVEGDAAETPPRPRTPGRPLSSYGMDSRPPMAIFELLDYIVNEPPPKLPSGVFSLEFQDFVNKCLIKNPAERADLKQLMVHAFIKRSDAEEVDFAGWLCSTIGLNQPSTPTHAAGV
# Test Details: MEK1 binding assay (HTRF, tracer displacement)
# Assay Conditions: read-out: % binding (2 µM)
Measure: inhibition at 2 µM (%)

[[record]]
structure_smiles_string = "CCN(CC)C(=O)Oc1cc2oc(=O)c(Cc3ccccc3)c(C)c2cc1Cl"
display_unit = "%"
recorded_number = 27

[[record]]
structure_smiles_string = "CCN(CC)C(=O)Oc1ccc2c(C)c(Cc3ccccc3)c(=O)oc2c1"
display_unit = "%"
recorded_number = 15.5

[[record]]
structure_smiles_string = "Cc1c(Cc2ccccc2)c(=O)oc2cc(O)ccc12"
display_unit = "%"
recorded_number = -0.81

[[record]]
structure_smiles_string = "CC(=O)Oc1ccc2c(C)c(Cc3ccc(F)cc3)c(=O)oc2c1"
display_unit = "%"
recorded_number = 72.2

[[record]]
structure_smiles_string = "Cc1c(Cc2ccccc2)c(=O)oc2cc(OC(=O)C(C)(C)C)c(Cl)cc12"
display_unit = "%"
recorded_number = 16.6

[[record]]
structure_smiles_string = "CCc1c(Cc2ccccc2)c(=O)oc2cc(OS(=O)(=O)c3ccccc3)ccc12"
display_unit = "%"
recorded_number = 31.1

[[record]]
structure_smiles_string = "CCc1c(Cc2ccccc2)c(=O)oc2cc(OC(=O)N(CC)CC)ccc12"
display_unit = "%"
recorded_number = 6.63

[[record]]
structure_smiles_string = "CCc1c(Cc2ccc(F)cc2)c(=O)oc2cc(OS(=O)(=O)c3ccccc3)ccc12"
display_unit = "%"
recorded_number = 16.6

[[record]]
structure_smiles_string = "CCCCC(=O)Oc1ccc2c(CC)c(Cc3ccc(F)cc3)c(=O)oc2c1"
display_unit = "%"
recorded_number = 42.8

[[record]]
structure_smiles_string = "Cc1c(Cc2ccc(F)cc2)c(=O)oc2cc(OC(=O)N(C)C)ccc12"
display_unit = "%"
recorded_number = 71.6

[[record]]
structure_smiles_string = "CCCCC(=O)Oc1cc2oc(=O)c(Cc3ccccc3)c(C)c2cc1Cl"
display_unit = "%"
recorded_number = 8.15

[[record]]
structure_smiles_string = "CCCc1c(Cc2ccccc2)c(=O)oc2cc(O)ccc12"
display_unit = "%"
recorded_number = 29.1

[[record]]
structure_smiles_string = "CCc1c(Cc2ccccc2)c(=O)oc2cc(OS(=O)(=O)c3ccc(C)cc3)ccc12"
display_unit = "%"
recorded_number = 33.2

